- TARGET DESC: isolated recombinant JAK2 kinase domain (Homo sapiens (Human), UniProt O60674)
- Sequence (O60674 849-1124): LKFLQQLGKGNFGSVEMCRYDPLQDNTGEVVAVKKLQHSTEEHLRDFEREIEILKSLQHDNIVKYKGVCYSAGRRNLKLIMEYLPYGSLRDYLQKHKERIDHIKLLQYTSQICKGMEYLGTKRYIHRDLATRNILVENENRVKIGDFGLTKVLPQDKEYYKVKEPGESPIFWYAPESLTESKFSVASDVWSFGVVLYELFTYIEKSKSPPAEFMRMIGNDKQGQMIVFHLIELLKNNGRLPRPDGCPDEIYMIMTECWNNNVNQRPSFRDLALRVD
- PROCEDURE DETAILS: JAK2 enzyme assay (Caliper LabChip, Ki)
- Assay type: biochemical
- MEASUREMENT CONDITIONS: isolated recombinant JAK2 kinase domain, 0.2 nM enzyme, ATP 25 μM
Cut-off 2 nM on Ki: below means Fulfilled, at or above means Not fulfilled.

Please review the entries below; each comes with its answer.
MOLECULE: CN1CCN(C(=O)Cn2cc(Nc3nc4c(N5CC6CCC(C5)N6CC5(CS(C)(=O)=O)CC5)cccn4n3)cn2)CC1
TARGET DESC: isolated recombinant JAK2 kinase domain (Homo sapiens (Human), UniProt O60674)
ASSIGNED CLASS: Not fulfilled
--
MOLECULE: CN1CCN(C(=O)Cn2cc(Nc3nc4c(N5CC6CCC(C5)N6S(=O)(=O)CCCC#N)cccn4n3)cn2)CC1
TARGET DESC: isolated recombinant JAK2 kinase domain (Homo sapiens (Human), UniProt O60674)
ASSIGNED CLASS: Not fulfilled
--
MOLECULE: CN1CCN(C(=O)Cn2cc(Nc3nc4c(N5CC6CCC(C5)N6S(=O)(=O)Cc5cccc(Cl)c5)cccn4n3)cn2)CC1
TARGET DESC: isolated recombinant JAK2 kinase domain (Homo sapiens (Human), UniProt O60674)
ASSIGNED CLASS: Fulfilled
--
MOLECULE: CN1CCN(C(=O)Cn2cc(Nc3nc4c(N5CC6CCC(C5)N6S(=O)(=O)c5cccnc5)cccn4n3)cn2)CC1
TARGET DESC: isolated recombinant JAK2 kinase domain (Homo sapiens (Human), UniProt O60674)
ASSIGNED CLASS: Fulfilled

Check if Ki falls below 2 nM for CC(C(=O)N1CCN(C)CC1)n1cc(Nc2nc3c(N4CC5CCC(C4)N5C(=O)CCC(F)(F)F)cccn3n2)cn1 (stereo not shown) [Example 104] .
Fulfilled

Check if Ki falls below 2 nM for `CN1CCN(C(=O)Cn2cc(Nc3nc4c(N5C[C@H]6CC[C@@H](C5)[C@H]6OCc5cccc(C#N)c5)cccn4n3)cn2)CC1` .
Not fulfilled

Check if Ki falls below 2 nM for `CSc1ccccc1S(=O)(=O)N1C2CCC1CN(c1cccn3nc(Nc4cnn(CC(=O)N5CCN(C)CC5)c4)nc13)C2` .
Fulfilled
